Tested on: TESK1
Conditions: concentration: 1 μM, replicates: in singlicate; n = 1;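 also: KINOMEscan kinase panel screen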
This listing pairs compounds with measured %Inh.
Returns: string containing the numeric result and its unit.

Answered examples (3):
Cc1c(Cn2c3ccccc3n3c(=O)cc(N4CCOCC4)nc23)cccc1C(F)(F)F: 0%
CNCc1ccc2nc(NC(=O)c3ccc(C(C)(C)C)cc3)cn2c1: 0%
Cn1cnc2c(N)ncnc21: 0%

Which %Inh is reported for this compound? CC(=O)c1c(C)c2cnc(Nc3ccc(N4CCNCC4)cn3)nc2n(C2CCCC2)c1=O 12%

###

This listing pairs compounds with measured %Inh.
System: EPHA3
Settings: concentration: 1 μM, replicates: in singlicate; n = 1
Just the number please, in %, no unit attached.

Answered examples (3):
COc1ccc(Nc2nccc(NCCNC(=O)Nc3cc(C)ccc3C)n2)cc1: 0
CNC(=O)c1ccc(C)c(-n2c(C)cc(OCc3ccc(F)cc3F)c(Br)c2=O)c1: 0
c1ccc(-c2ccnc3[nH]ccc23)cc1: 0

Which %Inh is reported for this compound? CC(=O)c1c(C)c2cnc(Nc3ccn(C)n3)nc2n(C2CCCC2)c1=O 0

Which %Inh is reported for this compound? COC(=O)c1cccc(NC(=O)NC2CCN(c3ccnc(Nc4ccc(OC)cc4)n3)C2)c1 (stereo not drawn) 0

###

System: BRAF
Conditions: concentration: 1 μM, replicates: in singlicate; n = 1
Response field label: string, one of met (%Inh strictly below 4%) or not met.

Worked examples, 2 compounds total:
CCCCc1nn2ncccc2c1-c1ccnc(NC2CC2)n1: not met
COc1cccc(C2=C(Nc3cc(Cl)c(O)c(Cl)c3)C(=O)NC2=O)c1: met

Quick check: %Inh of CCn1c(-c2c(N)noc2C)nc2cnccc21 under 4%? met

Quick check: %Inh of COc1ccc(Nc2nccc(N3CCC(NC(=O)c4cc5ccccc5s4)C3)n2)cc1 (stereo not drawn) under 4%? met

Quick check: %Inh of O=C(Nc1n[nH]c2cc(-c3ccsc3)ccc12)C1CC1 under 4%? not met

Quick check: %Inh of COc1nccc(-c2c(-c3ccc(F)cc3)ncn2CCCN2CCOCC2)n1 under 4%? not met

Quick check: %Inh of CCn1c(-c2ccccc2)nc2cnccc21 under 4%? not met

Quick check: %Inh of COc1ccc(Nc2nccc(N3CCC(NC(=O)C(C)c4ccc(Cl)cc4)C3)n2)cc1 (stereo not drawn) under 4%? met

###

This listing pairs compounds with measured %Inh.
Tested on: DRAK1
Construct: gene STK17A
Settings: concentration: 1 μM, replicates: in singlicate; n = 1
Just the number please, in %, no unit attached.

Answered examples (5):
Cc1ccccc1-c1cc(-c2c[nH]nc2-c2ccccn2)ccn1: 2
Cc1ccc(-c2nc(Nc3ccncc3)c3ccccc3n2)s1: 5
COC(=O)C(Cc1ccccc1)NC(=O)NC1CCN(c2ccnc(Nc3ccc(F)cc3)n2)C1 (stereo not shown): 0
Cn1cncc1-c1cc2c(Nc3ccc(OCc4ccccc4)cc3)ncnc2cn1: 93
Cc1cnc(N)c(/C=C/c2cncc(C(=O)NCCc3ccc(Cl)cc3Cl)c2)c1.Cl: 18

Checklist item: %Inh tested on DRAK1, entry Cn1cncc1C(=O)NC1CCN(c2ccnc(Nc3ccc(F)cc3)n2)C1 (stereo not shown) , value? 0

Checklist item: %Inh tested on DRAK1, entry Cc1ccc(NC(=O)Nc2ccccc2)cc1-c1ccc(C(=O)Nc2ccncc2)cc1 , value? 9

Checklist item: %Inh tested on DRAK1, entry Cc1c(Cn2c(C)c(C)n3c(=O)cc(N4CCOCC4)nc23)cccc1C(F)(F)F , value? 7

Checklist item: %Inh tested on DRAK1, entry COc1ccc(CSc2nnc(-c3ccc4c(c3)CCO4)o2)cc1 , value? 0

Checklist item: %Inh tested on DRAK1, entry CCCCc1nn2ncccc2c1-c1ccnc(NC2CC2)n1 , value? 0

Checklist item: %Inh tested on DRAK1, entry COc1ccc(Nc2nccc(N3CCC(NC(=O)c4cc5ccccc5s4)C3)n2)cc1 (stereo not shown) , value? 0

Checklist item: %Inh tested on DRAK1, entry Cc1cccc2c(-c3ccncn3)c(-c3ccc(F)cc3)nn12 , value? 0

Checklist item: %Inh tested on DRAK1, entry O=C1NC(=O)C(c2ccc(Cl)cc2)=C1Nc1ccc(O)cc1 , value? 0

Checklist item: %Inh tested on DRAK1, entry NS(=O)(=O)c1cccc(N/C=C2\C(=O)Nc3ccc(S(=O)(=O)Cc4c(Cl)cccc4Cl)cc32)c1 , value? 0

###

Test system: TNIK
Settings: concentration: 1 μM, replicates: in singlicate; n = 1
This listing pairs molecules with measured %Inh.
Returns: string containing the numeric result and its unit.

COc1cccc(CNC(=O)NC2CCN(c3ccnc(Nc4ccc(F)cc4)n3)C2)c1 (stereo not drawn): 0%
COc1ccc(Nc2nccc(N3CCC(NC(=O)C(C)c4ccc(Cl)cc4)CC3)n2)cc1 (stereo not drawn): 0%
Cc1ccc(NC(=O)Nc2ccc(Cl)c(C(F)(F)F)c2)cc1-c1ccc(C(=O)Nc2ccncc2)cc1: 9%

Which %Inh is reported for this molecule? CCn1c(-c2c(N)noc2C)nc2cnccc21 0%

Which %Inh is reported for this molecule? COC(=O)C(NC(=O)NC1CCN(c2ccnc(Nc3ccc(F)cc3)n2)C1)c1ccccc1 (stereo not drawn) 17%

Which %Inh is reported for this molecule? O=c1cc(N2CCOCC2)nc2n(Cc3cccc(Cl)c3Cl)c3ccccc3n12 1%

Which %Inh is reported for this molecule? COc1ccc(Nc2nccc(NCCNC(=O)Nc3cc(C)ccc3C)n2)cc1 0%

Which %Inh is reported for this molecule? COc1cccc(C2=C(Nc3cc(Cl)c(O)c(Cl)c3)C(=O)NC2=O)c1 0%

Which %Inh is reported for this molecule? CC(=O)c1c(C)c2cnc(Nc3ccn(C)n3)nc2n(C2CCCC2)c1=O 0%

###

Tested on: RIOK1
Settings: concentration: 1 μM, replicates: in singlicate; n = 1
This listing pairs compounds with measured %Inh.

Which %Inh is reported for this compound? O=c1cc(N2CCOCC2)nc2n(Cc3ccccc3F)ccn12 [GSK2297428] 38%

Which %Inh is reported for this compound? CNC(=O)c1ccc(C)c(-n2c(C)cc(OCc3ccc(F)cc3F)c(Br)c2=O)c1 0%

Which %Inh is reported for this compound? COc1cccc(C2=C(Nc3cc(Cl)c(O)c(Cl)c3)C(=O)NC2=O)c1 [SB-390767] 28%

###

This listing pairs compounds with measured %Inh.
Tested on: CASK
Conditions: concentration: 1 μM, replicates: in singlicate; n = 1
Just the number please, in %, no unit attached.

CSc1ccc(-c2nc3n(c2-c2ccncc2)CCC3)cc1 [SKF-105561]: 3

Which %Inh is reported for this compound? COC(=O)c1cccc(NC(=O)NC2CCN(c3ccnc(Nc4ccc(F)cc4)n3)C2)c1 (centres unmarked) [GSK1379725] 25

Which %Inh is reported for this compound? Cc1cnc(N)c(/C=C/c2cncc(C(=O)NCCc3ccc(Cl)cc3Cl)c2)c1.Cl [GSK190937] 7

###

Tested on: YSK4
Construct: gene MAP3K19
Settings: concentration: 1 μM, replicates: in singlicate; n = 1
This listing pairs compounds with measured %Inh.
Just the number please, in %, no unit attached.

Fc1ccc(-c2nn3cccc(F)c3c2-c2ccncc2)cc1 [GW475620]: 14

Which %Inh is reported for this compound? CC(C)c1cc(-c2ccc3c(N)n[nH]c3c2)nc(N)n1 [GSK2250882] 33

Which %Inh is reported for this compound? Nc1nccc(-c2c(-c3ccc(F)cc3)ncn2C2CCN(Cc3ccccc3)CC2)n1 [SB-219980] 34

Which %Inh is reported for this compound? c1ccc(-c2ccnc3[nH]ccc23)cc1 [SB-693578] 93.5

Which %Inh is reported for this compound? Cc1c(Cn2c3ccccc3n3c(=O)cc(N4CCOCC4)nc23)cccc1C(F)(F)F [GSK2306394] 7

###

This listing pairs molecules with measured %Inh.
Tested on: TRKA
Construct: gene NTRK1
Settings: concentration: 1 μM, replicates: in singlicate; n = 1

COc1ccc(CSc2nnc(-c3ccc4ncsc4c3)o2)cc1C(F)(F)F: 0%

Which %Inh is reported for this molecule? O=C(Nc1n[nH]c2cc(-c3ccsc3)ccc12)C1CC1 [SB-732932] 87%

Which %Inh is reported for this molecule? Cn1cncc1-c1cc2c(Nc3ccc(OCc4ccccc4)cc3)ncnc2cn1 [GW281179] 0%

###

System: JNK1
Construct: gene MAPK8
Details: concentration: 1 μM, replicates: in singlicate; n = 1
Label criterion met when %Inh >= 10%; otherwise criterion not met.

Worked examples, 2 compounds total:
CC(C)c1ccc(O)cc1Nc1ccnc2ccc(C(F)(F)F)cc12 [GW482059]: criterion not met
CC(C)c1cc(-c2ccc3c(N)n[nH]c3c2)nc(N)n1 [GSK2250882]: criterion met

Tell me whether %Inh is at least 10% here: Cc1cccc2c(-c3ccncn3)c(-c3ccc(F)cc3)nn12 [GW515532] criterion met

Tell me whether %Inh is at least 10% here: COC(=O)C(Cc1ccccc1)NC(=O)NC1CCN(c2ccnc(Nc3ccc(F)cc3)n2)C1 (stereo not shown) [GSK1379714] criterion met

Tell me whether %Inh is at least 10% here: NS(=O)(=O)c1cccc(N/C=C2\C(=O)Nc3ccc(S(=O)(=O)Cc4c(Cl)cccc4Cl)cc32)c1 [GSK398099] criterion not met

Tell me whether %Inh is at least 10% here: Cc1ccc(NC(=O)Nc2ccccc2)cc1-c1ccc(C(=O)Nc2ccncc2)cc1 [GSK1398471] criterion met

Tell me whether %Inh is at least 10% here: O=C(Nc1n[nH]c2nc(-c3cccs3)c(Br)cc12)C1CC1 [SB-735297] criterion met

Tell me whether %Inh is at least 10% here: COc1cccc(NC(=O)Nc2ccc(C)c(-c3ccc(C(=O)Nc4ccncc4)cc3)c2)c1 [GSK1398474] criterion not met

Tell me whether %Inh is at least 10% here: COc1ccc(Nc2nccc(-c3ccc(NC(=O)c4cc5cc(F)ccc5[nH]4)cc3)n2)cc1 [GSK1229496] criterion not met

Tell me whether %Inh is at least 10% here: Cl.Cl.Cl.N#Cc1ccc(CCNc2nccc(-c3cccc(CN4CCNCC4)c3)n2)cc1 [GSK2137462] criterion met
